- Measured target: Muscarinic acetylcholine receptor M5 (Homo sapiens, UniProt P08912)
- Sequence (P08912 whole entry): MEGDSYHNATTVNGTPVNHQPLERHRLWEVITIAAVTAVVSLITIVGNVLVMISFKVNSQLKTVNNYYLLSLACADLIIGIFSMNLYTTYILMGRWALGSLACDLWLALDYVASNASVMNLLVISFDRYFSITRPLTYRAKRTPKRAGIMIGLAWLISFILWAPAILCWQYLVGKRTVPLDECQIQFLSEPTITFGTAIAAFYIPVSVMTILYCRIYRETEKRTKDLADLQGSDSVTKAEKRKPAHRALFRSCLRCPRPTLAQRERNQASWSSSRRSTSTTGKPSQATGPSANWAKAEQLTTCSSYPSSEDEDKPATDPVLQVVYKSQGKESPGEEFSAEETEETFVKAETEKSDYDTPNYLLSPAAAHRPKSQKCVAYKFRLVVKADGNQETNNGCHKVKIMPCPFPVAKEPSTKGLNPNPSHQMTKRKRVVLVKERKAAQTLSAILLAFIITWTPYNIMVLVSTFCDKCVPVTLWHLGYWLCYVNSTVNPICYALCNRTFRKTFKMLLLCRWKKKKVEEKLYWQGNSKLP
- Measurement notes: Inhibition of human muscarinic M5 receptor expressed in CHO cells
Readout label: EC50

Enquiry: Please state recorded EC50 (tested on Muscarinic acetylcholine receptor M5 (Homo sapiens, UniProt P08912)) of `O=C(NCC1CCNCC1)c1ccccc1-c1nc(Cl)cs1`
Return: > 10 µM

---

- Measured target: Muscarinic acetylcholine receptor M1 (Homo sapiens) (UniProt P11229)
- Sequence (whole entry): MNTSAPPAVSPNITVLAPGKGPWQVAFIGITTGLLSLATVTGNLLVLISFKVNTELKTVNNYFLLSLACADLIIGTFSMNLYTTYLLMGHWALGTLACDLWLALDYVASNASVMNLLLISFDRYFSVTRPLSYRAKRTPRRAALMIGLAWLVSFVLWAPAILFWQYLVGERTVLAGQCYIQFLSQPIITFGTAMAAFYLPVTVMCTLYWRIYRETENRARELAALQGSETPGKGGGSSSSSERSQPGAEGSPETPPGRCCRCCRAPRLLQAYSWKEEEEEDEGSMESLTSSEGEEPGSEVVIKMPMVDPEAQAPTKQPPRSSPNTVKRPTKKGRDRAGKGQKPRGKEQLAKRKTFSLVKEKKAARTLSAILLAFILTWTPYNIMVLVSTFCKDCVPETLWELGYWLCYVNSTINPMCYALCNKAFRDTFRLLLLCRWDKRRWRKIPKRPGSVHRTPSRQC
- Measurement notes: Intrinsic activity at human muscarinic M1 receptor expressed in CHO cells assessed as effect on acetylcholine-induced intracellular calcium level by FLIPR assay relative to acetylcholine
- Assay type: functional, cell-based
I'd be grateful if you could share measured Intrinsic activity for these entries.
Write down the value, and be sure its unit follows.

Enquiry: What value of measured Intrinsic activity is listed for `Fc1cccc(-c2cc(Cl)ccc2Cl)c1-c1nc(C2CCNCC2)no1` ?
Return: 65%

Enquiry: What value of measured Intrinsic activity is listed for `O=C(NCC1CCNCC1)c1cnccc1-c1cccc(Cl)c1` ?
Return: 20%

Enquiry: What value of measured Intrinsic activity is listed for OC(CCC1CCNCC1)c1ccccc1-c1cccc(Cl)c1 (configuration not stated) ?
Return: 100%

Enquiry: What value of measured Intrinsic activity is listed for C[C@H]1CNCC[C@H]1CNC(=O)c1c(F)cccc1-c1cccc(Cl)c1 (relative stereo) ?
Return: 92%

Enquiry: What value of measured Intrinsic activity is listed for `O=C(NCC1=CCNCC1)c1c(F)cccc1-c1cccc(Cl)c1` ?
Return: 91%

Enquiry: What value of measured Intrinsic activity is listed for `O=C(NCC1CCNCC1)c1c(F)cccc1-c1cc(Cl)ccc1Cl` ?
Return: 92%

Enquiry: What value of measured Intrinsic activity is listed for `O=C(NCC1CCNCC1)c1cccc(F)c1-c1cccc(Cl)c1` ?
Return: 45%

Enquiry: What value of measured Intrinsic activity is listed for `O=S(=O)(CCC1CCNCC1)c1ccccc1-c1cccc(Cl)c1` ?
Return: 71%

Enquiry: What value of measured Intrinsic activity is listed for `O=C(NCC1(F)CCNCC1)c1c(F)cccc1-c1cccc(Cl)c1` ?
Return: 87%

Enquiry: What value of measured Intrinsic activity is listed for `O=C(CC1CCNCC1)Nc1ccccc1-c1cccc(Cl)c1` ?
Return: 43%

Enquiry: What value of measured Intrinsic activity is listed for `CN(C(=O)Cc1ccccc1-c1cccc(Cl)c1)C1CCNCC1` ?
Return: 7.8%

Enquiry: What value of measured Intrinsic activity is listed for `CC(=O)N(Cc1ccccc1-c1cccc(Cl)c1)CC1CCNCC1` ?
Return: 70%

---

- Measured target: Muscarinic acetylcholine receptor M3 (Homo sapiens, UniProt P20309)
- Sequence (P20309 whole entry): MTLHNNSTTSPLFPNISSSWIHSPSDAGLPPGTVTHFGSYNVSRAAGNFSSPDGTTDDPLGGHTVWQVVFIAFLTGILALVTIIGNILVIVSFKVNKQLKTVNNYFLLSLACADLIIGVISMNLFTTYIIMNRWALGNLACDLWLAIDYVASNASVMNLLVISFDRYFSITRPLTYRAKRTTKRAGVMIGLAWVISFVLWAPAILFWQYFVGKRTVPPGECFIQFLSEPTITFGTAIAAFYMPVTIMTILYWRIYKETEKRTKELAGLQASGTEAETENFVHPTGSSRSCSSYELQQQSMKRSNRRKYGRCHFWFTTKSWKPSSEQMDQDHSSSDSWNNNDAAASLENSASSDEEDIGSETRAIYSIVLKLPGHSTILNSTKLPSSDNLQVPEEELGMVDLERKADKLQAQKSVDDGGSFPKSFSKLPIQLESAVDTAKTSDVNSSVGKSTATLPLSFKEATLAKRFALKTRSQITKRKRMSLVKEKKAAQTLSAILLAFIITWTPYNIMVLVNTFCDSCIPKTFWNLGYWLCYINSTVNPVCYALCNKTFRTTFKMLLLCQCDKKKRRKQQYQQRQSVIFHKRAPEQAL
- Measurement notes: Inhibition of human muscarinic M3 receptor expressed in CHO cells
Readout label: pIC50
Just so you know, pIC50 here is -log10 of the concentration in molar units; reply with that number alone.

Enquiry: What value of measured pIC50 is listed for C[C@H]1CNCC[C@H]1CNC(=O)c1c(F)cccc1-c1cccc(Cl)c1 (relative stereo) ?
Return: 5.60

Enquiry: What value of measured pIC50 is listed for OC(CCC1CCNCC1)c1ccccc1-c1cccc(Cl)c1 (centres undefined) ?
Return: 8.70

Enquiry: What value of measured pIC50 is listed for `O=S(=O)(CCC1CCNCC1)c1ccccc1-c1cccc(Cl)c1` ?
Return: 7.70

Enquiry: What value of measured pIC50 is listed for `O=C(NCC1=C(F)CNCC1)c1c(-c2cccc(Cl)c2)ccc(Cl)c1F` ?
Return: 5.00

---

I'd be grateful if you could share measured pIC50 for these entries.
- Measured target: Muscarinic acetylcholine receptor M2 (Homo sapiens, UniProt P08172)
- Sequence (P08172 whole entry): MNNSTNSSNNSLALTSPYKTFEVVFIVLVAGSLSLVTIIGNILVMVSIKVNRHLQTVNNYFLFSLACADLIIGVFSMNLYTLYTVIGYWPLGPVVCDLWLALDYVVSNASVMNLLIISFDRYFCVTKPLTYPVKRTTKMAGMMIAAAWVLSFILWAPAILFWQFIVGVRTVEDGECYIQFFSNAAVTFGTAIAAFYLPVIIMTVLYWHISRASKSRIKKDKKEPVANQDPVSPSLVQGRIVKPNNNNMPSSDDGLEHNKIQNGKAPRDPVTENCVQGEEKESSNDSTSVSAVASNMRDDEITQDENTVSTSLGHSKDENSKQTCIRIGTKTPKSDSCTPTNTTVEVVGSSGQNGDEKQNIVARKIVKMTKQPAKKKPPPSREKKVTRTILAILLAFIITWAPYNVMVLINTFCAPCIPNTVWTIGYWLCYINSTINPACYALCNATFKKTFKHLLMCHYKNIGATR
- Measurement notes: Inhibition of human muscarinic M2 receptor expressed in CHO cells
Just so you know, pIC50 here is -log10 of the concentration in molar units; reply with that number alone.

Enquiry: What value of measured pIC50 is listed for C[C@H]1CNCC[C@@H]1CNC(=O)c1c(F)cccc1-c1cccc(Cl)c1 (relative stereo) ?
Return: 6.70

Enquiry: What value of measured pIC50 is listed for `O=C(NCC1=CCNCC1)c1c(F)cccc1-c1cccc(Cl)c1` ?
Return: 5.90

Enquiry: What value of measured pIC50 is listed for `C[C@H]1CNCC[C@]1(F)CNC(=O)c1c(F)cccc1-c1cccc(Cl)c1` ?
Return: 5.60

---

I'd be grateful if you could share measured Intrinsic activity for these entries.
- Measured target: Muscarinic acetylcholine receptor M1 (Homo sapiens)
- Measurement notes: Intrinsic activity at human muscarinic M1 receptor expressed in CHO cells assessed as effect on acetylcholine-induced intracellular calcium level by FLIPR assay relative to acetylcholine
- Format: functional, cell-based
Write down the value, and be sure its unit follows.

Enquiry: What value of measured Intrinsic activity is listed for `O=C(NCC1CCNCC1)c1c(F)cccc1-c1cccc(Cl)c1` ?
Return: 90%

Enquiry: What value of measured Intrinsic activity is listed for `Cc1ccc(-c2cccc(Cl)c2)c(C(=O)NCC2CCNCC2)c1` ?
Return: 67%

Enquiry: What value of measured Intrinsic activity is listed for `CC[C@H]1CNCC[C@@H]1CNC(=O)c1c(F)cccc1-c1cccc(Cl)c1` ?
Return: 92%

Enquiry: What value of measured Intrinsic activity is listed for `Cc1cccc(C(=O)NCC2CCNCC2)c1-c1cccc(Cl)c1` ?
Return: 34%

Enquiry: What value of measured Intrinsic activity is listed for `O=C(NC[C@H]1CCNC[C@H]1F)c1c(F)cccc1-c1cccc(Cl)c1` ?
Return: 68%

Enquiry: What value of measured Intrinsic activity is listed for `O=C(NCC1CCNCC1)c1cc(Cl)ccc1-c1cccc(Cl)c1` ?
Return: 74%

Enquiry: What value of measured Intrinsic activity is listed for `O=C(NCCC1CCNCC1)c1ccccc1-c1cccc(Cl)c1` ?
Return: 52%

Enquiry: What value of measured Intrinsic activity is listed for `O=C(NCC1CCNCC1)c1sccc1-c1cccc(Cl)c1` ?
Return: 0%

Enquiry: What value of measured Intrinsic activity is listed for `O=C(NCC1CCNCC1)c1cccnc1-c1cccc(Cl)c1` ?
Return: 0%

Enquiry: What value of measured Intrinsic activity is listed for `Clc1cccc(-c2ccccc2/C=C/CC2CCNCC2)c1` ?
Return: 55%

Enquiry: What value of measured Intrinsic activity is listed for CC1CNCC=C1CNC(=O)c1c(-c2cccc(Cl)c2)ccc(Cl)c1F (stereo unspecified) ?
Return: 72%

---

- Measured target: Muscarinic acetylcholine receptor M1 (Homo sapiens, UniProt P11229)
- Measurement notes: Agonist activity at human muscarinic M1 receptor expressed in CHO cells assessed as effect on acetylcholine-induced intracellular calcium level by FLIPR assay
I'd be grateful if you could share measured pEC50 for these entries.
Just so you know, pEC50 here is -log10 of the concentration in molar units; reply with that number alone.

Enquiry: What value of measured pEC50 is listed for `Cc1ccc(C(=O)NCC2CCNCC2)c(-c2cccc(Cl)c2)c1` ?
Return: 6.80

Enquiry: What value of measured pEC50 is listed for `O=C(NCC1CCNCC1)c1c(F)cccc1-c1cccc(Cl)c1` ?
Return: 7.80

Enquiry: What value of measured pEC50 is listed for `O=C(NCC1(F)CCNCC1)c1c(F)cccc1-c1cccc(Cl)c1` ?
Return: 7.20

Enquiry: What value of measured pEC50 is listed for `O=C(NCC1CCNCC1)c1cc(F)ccc1-c1cccc(Cl)c1` ?
Return: 7.30

Enquiry: What value of measured pEC50 is listed for `O=C(NCC1CCNCC1)c1ccccc1-c1nc(Cl)cs1` ?
Return: 6.60

Enquiry: What value of measured pEC50 is listed for OC(CCC1CCNCC1)c1ccccc1-c1cccc(Cl)c1 (stereo not given) ?
Return: 9.00

Enquiry: What value of measured pEC50 is listed for `O=C(NCC1CCNCC1)c1ccc(Cl)cc1-c1cccc(Cl)c1` ?
Return: 7.00

Enquiry: What value of measured pEC50 is listed for `O=C(NCC1=CCNCC1)c1c(F)cccc1-c1cccc(Cl)c1` ?
Return: 8.50

Enquiry: What value of measured pEC50 is listed for `O=C(NCC1CCNCC1)c1cc(Cl)ccc1-c1cccc(Cl)c1` ?
Return: 7.00

Enquiry: What value of measured pEC50 is listed for `O=C(NCC1CCNCC1)c1cccc(F)c1-c1cccc(Cl)c1` ?
Return: 5.30
